Assayed System: T1, human GITR (amino acids M1-V241, NCBI Accession #NP_004186.1) expressed on cells (human, UniProt Q9Y5U5 26-241)
T1 construct: also called hGITR; hGITR/HEK293-D9
T1 sequence: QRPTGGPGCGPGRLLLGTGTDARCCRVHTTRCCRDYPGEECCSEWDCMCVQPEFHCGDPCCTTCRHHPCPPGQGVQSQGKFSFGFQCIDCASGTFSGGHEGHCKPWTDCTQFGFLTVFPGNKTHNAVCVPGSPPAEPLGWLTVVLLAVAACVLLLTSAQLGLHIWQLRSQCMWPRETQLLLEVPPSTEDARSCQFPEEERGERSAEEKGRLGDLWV
Assay Summary: ECL cell binding, hGITR/HEK293-D9
Description: Nonspecific binding sites were blocked with 2% BSA (w/v)+PBS for 1 h at room temperature (RT). Next, serial dilutions of anti-GITR antibodies, ranging from 1.7 pM to 100 nM, were added to cells for 1 h at RT. Plates were then washed to remove unbound antibodies (AquaMax2000 plate washer, MSD Analytical Technologies) and plate-bound antibodies were detected with a SULFO-TAG™ conjugated anti-human kappa light chain IgG antibody (Jackson Immunoresearch) for 1 h at RT. […]
Quantity Kind: pEC50
Interpret pEC50 as the negative base-10 log of the concentration measured in mol/L.

Consider the worked cases shown below.
[
  {
    "Binder": "H1H14491P (antibody, human IgG1, V domains shown, human IgG1 (H1H)) VH: QVQLVESGGGVVQPGRSLRLSCVASGFTFSDYGMHWVRQAPGKGLEWVAVIWYEGSNKYYADSVTGRFTISRDNSKNTLFLQMNSLKAEDTAEYYCAKDGGQLAYQYYYGMDVWGQGTTVTVSS VL: AIQMTQSPSSLSASVGDRVTLTCRASQGIRNDLGWYQQKPGKAPKSLIYAASNLQSGVPSRFSGSGSGTDFTLTISSLQPEDSATYYCLQDYNYPRTFGQGTKVEIK",
    "Reported Value": 9.40
  },
  {
    "Binder": "H4H14476P (antibody, human IgG4, V domains shown, human IgG4 (H4H)) VH: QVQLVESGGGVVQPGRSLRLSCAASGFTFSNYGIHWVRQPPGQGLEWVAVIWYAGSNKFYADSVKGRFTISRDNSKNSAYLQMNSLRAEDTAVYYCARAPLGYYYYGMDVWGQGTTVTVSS VL: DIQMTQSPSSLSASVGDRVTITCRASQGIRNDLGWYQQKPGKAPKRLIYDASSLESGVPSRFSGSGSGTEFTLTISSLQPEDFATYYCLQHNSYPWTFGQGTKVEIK",
    "Reported Value": 9.24
  },
  {
    "Binder": "H4H14528P (antibody, human IgG4, V domains shown, human IgG4 (H4H)) VH: QVQLVESGGGVVQPGRSLRISCAASGFTFNNYGFHWVRQAPGRGLEWVAVIWYSGSNKYYGDSVKGRFTISRDNSKNILYLQMNSLRAEDTAIYYCARFPFSSSWLLDYWGQGTLVTVSS VL: DIQLTQSPSFLSASVGDRVTFTCWASQGISDYLAWYQQKPGKAPKLLIYAASALQSGVPSRFSGSGSGTEFTLTVSSLQPEDFATYYCQQLNSYPFTFGPGTKVDIK",
    "Reported Value": 9.35
  }
]

Q: Dear colleague, please send me the reported pEC50 for H1H14474P (antibody, human IgG1, V domains shown, human IgG1 (H1H)) VH: QVQLVESGGGVVQPGRSLRLSCAASGFTFSSYGMDWVRQAPGKGLEWVAVIWYPGSNKYYADSVKGRFTVSRDNSKNTLYLQMNSLRAEDTAVYYCARDGELGLDYYSGMDVWGQGTTVTVSS VL: DIQMTQSPSSLSASVGDRVTITCRASQGIRNDLNWYQQKPGKAPKRLINGASSLQSGVPSRFSGSGSGTEFTLTISSLQPEDFATYYCLQLNSYPRTFGQGTKVEIK when you can.
A: 9.55

Q: Dear colleague, please send me the reported pEC50 for H1H14512P (antibody, human IgG1, V domains shown, human IgG1 (H1H)) VH: QVQLVESGGGVVQPGRSLRLSCAVSGFTLSSYGMDWVRQAPGKGLEWVAVIWYDGSNKYYSDSVKGRFTISRDNSKNTLFLQMNSLRADDTAVYYCARDGELGLDYYSGMDVWGQGTTVTVSS VL: DIQMTQSPSSLSASVGDRVTITCRASQDIRNDLGWYQQKPGKAPKRLIYGASSLQSGVPSRFSGSGSGTEFTLTISSLQPEDFATYYCLQLNSYPRTFGQGTKVEIK when you can.
A: 9.60
